Target: T1, extracellular domain of rhesus monkey BCMA (rhesus monkey, UniProt F7FFA0 1-53)
T1 construct: extracellular domain; also called RhBCMA
T1 sequence (F7FFA0 entry or part of it): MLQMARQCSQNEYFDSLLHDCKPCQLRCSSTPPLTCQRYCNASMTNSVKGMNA
Assay: Octet BLI; Fab 200 nM
# strict inequality: Kd < 6 nM yields 1 (yes), everything else yields 0 (no)

The following binders have reported results that may help.
# Binder, Group
rows = [
    ("AB200-R1H32-R2Vk9 (Fab, V domains shown) VH: QVQLVQSGAEVKKPGSSVKVSCKASGGTFSNYWMHWVRQAPGQGLEWMGATYRSHSDTYYNQKFKSRVTITADKSTSTAYMELSSLRSEDTAVYYCARGAIYHGYDVIDNWGQGTLVTVSS VL: DIQMTQSPSSLSASVGDRVTITCRASQSISSYLNWYQQKPGKAPKLLIYAASSLQSGVPSRFSGSGSGTDFTLTISSLQPEDFATYYCQQYRRLPWSFGQGTKLEIKR", "0 (no)"),
    ("AB200-R1H32-R2Vk1 (Fab, V domains shown) VH: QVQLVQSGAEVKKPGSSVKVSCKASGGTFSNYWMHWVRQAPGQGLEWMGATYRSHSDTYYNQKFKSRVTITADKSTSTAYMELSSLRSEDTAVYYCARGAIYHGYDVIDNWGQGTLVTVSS VL: DIQMTQSPSSLSASVGDRVTITCRASQSISSYLNWYQQKPGKAPKLLIYAASSLQSGVPSRFSGSGSGTDFTLTISSLQPEDFATYYCQQFRKLPWSFGQGTKLEIKR", "1 (yes)"),
]

Continue with the binder presented below.
Problem: For the binder AB200-R1H32-R2Vk20 (Fab, V domains shown) VH: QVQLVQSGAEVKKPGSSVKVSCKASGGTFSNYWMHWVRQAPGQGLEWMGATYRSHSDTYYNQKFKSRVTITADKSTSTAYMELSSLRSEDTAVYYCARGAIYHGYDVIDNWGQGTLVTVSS VL: DIQMTQSPSSLSASVGDRVTITCRASQSISSYLNWYQQKPGKAPKLLIYATSNLQSGVPSRFSGSGSGTDFTLTISSLQPEDFATYYCQQYRRIPWTFGQGTKLEIKR , is Kd under 6 nM?
1 (yes)
